# Tested on: non-senescent control IMR90 ER:RAS cells
# METHOD NOTES: Nuclei count (Hoechst, high content imaging) senolytic assay, OIS model, non-senescent control cells
# Assay type: cell-based, human
# CONDITION INFO: Homo sapiens, IMR-90, Control cells; log (dose) [M] -7.33; individual replicates; SUP FIG 4C; read-out: % Cell Survival
Structures can show the parent of a compound that is named as a salt.
OBSERVABLE: viability at 0.04677 µM (%)
All answers are understood in %, so give the number only.

Per the records, this compound ( COC[C@H]1C[C@@H](c2nc(-c3ccc4c(c3)COc3cc5c(ccc6nc([C@@H]7CC[C@H](C)N7C(=O)[C@@H](NC(=O)OC)C(C)C)[nH]c65)cc3-4)c[nH]2)N(C(=O)[C@H](NC(=O)OC)c2ccccc2)C1 [Velpatasvir, velpatasvir, reference compound] ) has viability at 0.04677 µM equal to 101

viability at 0.04677 µM reported for this compound CC[C@]1(O)C[C@@H]2CN(CCc3c([nH]c4ccccc34)[C@@](C(=O)OC)(c3cc4c(cc3OC)N(C)[C@H]3[C@@](O)(C(=O)OC)[C@H](OC(C)=O)[C@]5(CC)C=CCN6CC[C@]43[C@@H]65)C2)C1 [Vinblastine sulfate, vinblastine sulfate, reference compound] : 114

Sample `O=c1c(O)c(-c2ccc(O)cc2)oc2c(O)c(O)cc(O)c12` ; viability at 0.04677 µM observed: 100

# compound Cc1cnc(C(=O)N[C@H]2CCCCC/C=C\[C@@H]3C[C@@]3(C(=O)NS(=O)(=O)C3CC3)NC(=O)[C@@H]3C[C@@H](Oc4nc5ccccc5c5ccccc45)CN3C2=O)cn1 [Paritaprevir, paritaprevir, reference compound] ; its viability at 0.04677 µM = 83

Briefly, viability at 0.04677 µM measured for `Cc1c(-c2c(F)cc(C(N)=O)c3[nH]c4c(c23)CC[C@H](C(C)(C)O)C4)cccc1-n1c(=O)c2cccc(F)c2n(C)c1=O` : 108

Item: CO[C@H]1C[C@@H]2CC[C@@H](C)[C@@](O)(O2)C(=O)C(=O)N2CCCC[C@H]2C(=O)O[C@H]([C@H](C)C[C@@H]2CC[C@@H](O)[C@H](OC)C2)CC(=O)[C@H](C)/C=C(\C)[C@@H](O)[C@@H](OC)C(=O)[C@H](C)C[C@H](C)/C=C/C=C/C=C/1C [Rapamycin, rapamycin, reference compound] | viability at 0.04677 µM: 89.7

Lookup result for CO[C@H]1C[C@@H]2CC[C@@H](C)[C@@](O)(O2)C(=O)C(=O)N2CCCC[C@H]2C(=O)O[C@H]([C@H](C)C[C@@H]2CC[C@H](n3cnnn3)[C@H](OC)C2)CC(=O)[C@H](C)/C=C(\C)[C@@H](O)[C@@H](OC)C(=O)[C@H](C)C[C@H](C)/C=C/C=C/C=C/1C [Zotarolimus, zotarolimus, reference compound] ; measured viability at 0.04677 µM: 102
